Assay: Solubility in different solvents (aliquot addition until dissolution)
Format: physicochemical
Conditions: organic solvent or mixture, thermodynamic from solid, Methylethyl ketone (MEK)
Experimental: Solubility in different solvents: Solubility in different organic solvents was measured using the following protocol. Approximately 25 mg portions of genistein and crystalline genistein sodium dihydrate salt were placed in 48 different vials, separately. 5 volume aliquots of each solvent were added exclusively to a vial. […]
Recorded solubility for the following compounds
quantityMeasured: solubility

                                   compound  observedmeasurement
0  O.O.O=c1c(-c2ccc(O)cc2)coc2cc(O)cc(O)c12.[Na] [genistein sodium salt dihydrate]         < 9200 µg/mL
1      O=c1c(-c2ccc(O)cc2)coc2cc(O)cc(O)c12        < 10800 µg/mL

---

Entries and their solubility
Assay: Solubility in different solvents (aliquot addition until dissolution)
Format: physicochemical
Conditions: organic solvent or mixture, thermodynamic from solid, 1-Butanol (BuOH)
quantityMeasured: solubility (mg/mL)

>>> print(df.to_string())
                                   compound  outputunit  censoringsign  observedmeasurement
0  O.O.O=c1c(-c2ccc(O)cc2)coc2cc(O)cc(O)c12.[Na] [genistein sodium salt dihydrate]       mg/mL              =                 19.3
1      O=c1c(-c2ccc(O)cc2)coc2cc(O)cc(O)c12       mg/mL              <                 10.5

---

Quick reference for solubility among some compounds
Experiment: Solubility in different solvents (aliquot addition until dissolution)
Assay type: physicochemical
Settings: organic solvent or mixture, thermodynamic from solid, 1,4-dioxane
quantityMeasured: solubility

                                   compound  quantitymeasured  observedmeasurement
0  O=c1c(-c2ccc(O)cc2)coc2cc(O)cc(O)c12 [Genistein]        solubility         < 10.3 mg/mL
1  O.O.O=c1c(-c2ccc(O)cc2)coc2cc(O)cc(O)c12.[Na] [genistein sodium salt dihydrate]        solubility         < 10.6 mg/mL

---

Assay: Solubility in different solvents (aliquot addition until dissolution)
Format: physicochemical
Conditions: organic solvent or mixture, thermodynamic from solid, Octanol
quantityMeasured: solubility

In [3]: df
Out[3]:
                                   molecule  observedmeasurement
0  O.O.O=c1c(-c2ccc(O)cc2)coc2cc(O)cc(O)c12.[Na] [genistein sodium salt dihydrate]           < 11 mg/mL
1      O=c1c(-c2ccc(O)cc2)coc2cc(O)cc(O)c12         < 10.5 mg/mL

---

Assay: Solubility in different solvents (aliquot addition until dissolution)
Type: physicochemical
Conditions: organic solvent or mixture, thermodynamic from solid, N-Methyl-2-pyrrolidinone (NMP)
quantityMeasured: solubility (mg/mL)

In [3]: df
Out[3]:
                                   molecule  quantitymeasured  observedmeasurement
0  O.O.O=c1c(-c2ccc(O)cc2)coc2cc(O)cc(O)c12.[Na] [genistein sodium salt dihydrate]        solubility                 90.4

---

Assay: Aqueous solubility (slurry shaken ca. 24 hours, filtered, HPLC)
Assay type: physicochemical
Settings: aqueous buffer, thermodynamic from solid, Water/slurry pH 4.5, ambient temperature
quantityMeasured: solubility (µg/mL)

>>> print(df.to_string())
                                   compound  outputunit  observedmeasurement
0  O.O.O=c1c(-c2ccc(O)cc2)coc2cc(O)cc(O)c12.[Na] [genistein sodium salt dihydrate]       µg/mL                  136

Origin of measurements: patent US7863325B2
